Target or system: CLK4 (human) (UniProt Q9HAZ1)
Sequence (Q9HAZ1 whole entry, looked up): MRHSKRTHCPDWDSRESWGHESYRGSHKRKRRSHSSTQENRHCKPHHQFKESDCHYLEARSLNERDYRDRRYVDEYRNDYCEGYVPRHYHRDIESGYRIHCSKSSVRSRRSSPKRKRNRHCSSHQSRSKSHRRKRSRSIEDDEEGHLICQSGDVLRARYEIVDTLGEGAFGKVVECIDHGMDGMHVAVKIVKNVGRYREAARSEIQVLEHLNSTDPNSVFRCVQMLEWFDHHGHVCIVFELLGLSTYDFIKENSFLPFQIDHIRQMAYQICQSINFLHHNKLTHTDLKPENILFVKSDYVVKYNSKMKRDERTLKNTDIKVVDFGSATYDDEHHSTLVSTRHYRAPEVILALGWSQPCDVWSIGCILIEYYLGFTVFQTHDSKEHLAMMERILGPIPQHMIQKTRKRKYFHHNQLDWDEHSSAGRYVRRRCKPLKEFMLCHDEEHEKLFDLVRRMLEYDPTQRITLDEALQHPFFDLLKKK
Assay explanation: radiometric filter-binding kinase assay, Kinase HotSpot
Applied conditions: compound 0.5 µM; ATP 10 µM
Reported metric: residual activity (%)
Give the quantity in %, number only.

{"Compound structure": "Nc1nnc2[nH]c3ccccc3nc1-2", "Measured result": 86.9}
{"Compound structure": "Nc1nccc(-c2c(-c3ccc(F)cc3)ncn2C2CCNCC2)n1", "Measured result": 96.9}
{"Compound structure": "CC(=O)O/N=C1\\C(=C2\\C(=O)Nc3cc(Br)ccc32)Nc2ccccc21", "Measured result": 94.1}

Data request, read-out residual activity, for CC(C)c1nn(-c2c(Cl)cccc2Cl)c2nc(Cc3ccc(OCCO)cc3)nc(O)c12
81.2

---

Reported residual activity values for the following molecules.
Target or system: PIM1 (human)
Assay explanation: radiometric filter-binding kinase assay, Kinase HotSpot
Applied conditions: compound 0.5 µM; ATP 10 µM
Just the number in %, nothing appended.

The following molecules have reported results that may help.
{"Molecule": "CN([C@@H](Cc1ccc(OS(=O)(=O)c2cccc3cnccc23)cc1)C(=O)N1CCN(c2ccccc2)CC1)S(=O)(=O)c1cccc2cnccc12", "Measured result": 106}
{"Molecule": "Cn1nc2c3c(cccc31)C(=O)c1ccccc1-2", "Measured result": 80.3}
{"Molecule": "O=C1Nc2ccccc2/C1=C1/Nc2ccccc2/C1=N\\OCCC(O)CO (stereo not given)", "Measured result": 59.7}

Consider the molecule Oc1ccc(Nc2nc(-c3ccc(Cl)cc3)cs2)cc1 and give its measured residual activity.
103

Fill in the blank: the reported residual activity of CC(=O)O/N=C1\C(=C2\C(=O)Nc3cc(Br)ccc32)Nc2ccccc21 is ____.
79.8

Query: residual activity; subject: COc1ccc(CNC(=O)Nc2ncc([N+](=O)[O-])s2)cc1
104

---

Target or system: DDR2 (human) (UniProt Q16832)
Sequence (Q16832 whole entry, looked up): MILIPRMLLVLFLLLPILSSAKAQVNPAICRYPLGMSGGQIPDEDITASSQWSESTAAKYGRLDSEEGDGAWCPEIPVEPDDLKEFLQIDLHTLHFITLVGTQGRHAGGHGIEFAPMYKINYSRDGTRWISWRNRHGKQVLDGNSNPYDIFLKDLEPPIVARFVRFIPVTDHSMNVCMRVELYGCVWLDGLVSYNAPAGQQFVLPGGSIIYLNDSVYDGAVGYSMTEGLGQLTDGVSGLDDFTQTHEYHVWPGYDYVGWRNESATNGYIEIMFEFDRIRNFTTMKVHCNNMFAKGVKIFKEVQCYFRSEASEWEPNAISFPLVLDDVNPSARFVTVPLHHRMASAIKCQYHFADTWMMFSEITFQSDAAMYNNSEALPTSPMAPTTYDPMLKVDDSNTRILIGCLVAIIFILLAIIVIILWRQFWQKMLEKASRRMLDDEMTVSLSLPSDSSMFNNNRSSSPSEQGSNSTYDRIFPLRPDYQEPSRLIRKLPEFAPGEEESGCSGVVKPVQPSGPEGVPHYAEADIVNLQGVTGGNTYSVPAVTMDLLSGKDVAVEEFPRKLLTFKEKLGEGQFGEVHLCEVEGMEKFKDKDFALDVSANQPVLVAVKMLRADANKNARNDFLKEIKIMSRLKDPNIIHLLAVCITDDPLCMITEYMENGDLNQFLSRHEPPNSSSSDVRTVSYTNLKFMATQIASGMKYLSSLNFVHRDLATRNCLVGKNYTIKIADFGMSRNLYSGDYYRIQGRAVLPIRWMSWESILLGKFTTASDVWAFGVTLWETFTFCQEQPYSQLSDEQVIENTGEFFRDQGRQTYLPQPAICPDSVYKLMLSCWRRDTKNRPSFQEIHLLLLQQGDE
Assay explanation: radiometric filter-binding kinase assay, Kinase HotSpot
Applied conditions: compound 0.5 µM; ATP 10 µM
Examples of compounds with documented residual activity follow.
Hi, when you answer, please include the unit after the number. Thanks!

{"Compound structure": "CC(C)c1nn(-c2c(Cl)cccc2Cl)c2nc(Cc3ccc(OCCO)cc3)nc(O)c12", "Target or system": "DDR2 (human) (UniProt Q16832)", "residual activity": "96.3%"}
{"Compound structure": "Cn1nc2c3c(cccc31)C(=O)c1ccccc1-2", "Target or system": "DDR2 (human) (UniProt Q16832)", "residual activity": "95.1%"}
{"Compound structure": "O=C1Cc2c([nH]c3ccc(Br)cc23)-c2ccccc2N1", "Target or system": "DDR2 (human) (UniProt Q16832)", "residual activity": "98.4%"}
{"Compound structure": "O=C1Nc2ccccc2/C1=C1\\Nc2ccccc2\\C1=N/O", "Target or system": "DDR2 (human) (UniProt Q16832)", "residual activity": "101%"}
{"Compound structure": "Cn1cnc2cc3c(Nc4cccc(Br)c4)ncnc3cc21", "Target or system": "DDR2 (human) (UniProt Q16832)", "residual activity": "102%"}
{"Compound structure": "Oc1ccc(Nc2nc(-c3ccc(Cl)cc3)cs2)cc1", "Target or system": "DDR2 (human) (UniProt Q16832)", "residual activity": "94.1%"}
{"Compound structure": "O=C1NC(=O)C(c2c[nH]c3ccccc23)=C1c1c[nH]c2ccccc12", "Target or system": "DDR2 (human) (UniProt Q16832)", "residual activity": "101%"}
{"Compound structure": "CC(C)[C@H](CO)Nc1nc(Nc2cc(N)cc(Cl)c2)c2ncn(C(C)C)c2n1", "Target or system": "DDR2 (human) (UniProt Q16832)", "residual activity": "128%"}

Next compound, please.
Which residual activity is reported with DDR2 (human) (UniProt Q16832) for this entry: O=C(Nc1cccc(Nc2cc(Nc3cccc(C(F)(F)F)c3)ncn2)c1)C1CC1 ?
106%

---

Target or system: IKBKB (human)
Assay explanation: radiometric filter-binding kinase assay, Kinase HotSpot
Applied conditions: compound 0.5 µM; ATP 10 µM
Reported metric: residual activity
Could you write the number and then its unit?

Given the entry O=C(O)/C=C/c1cc(Br)c(Br)c(Br)c1Br , report its measured residual activity.
95.7%

Any idea what its residual activity is? The compound is O=C(CCCc1ccc(-c2ccccc2F)cc1)Nc1ccc(O)cc1
101%

// residual activity lookup, key: CC(C)c1nn(-c2c(Cl)cccc2Cl)c2nc(Cc3ccc(OCCO)cc3)nc(O)c12
103%

---

Target or system: MST1R (human) (UniProt Q04912)
Sequence (Q04912 whole entry, looked up): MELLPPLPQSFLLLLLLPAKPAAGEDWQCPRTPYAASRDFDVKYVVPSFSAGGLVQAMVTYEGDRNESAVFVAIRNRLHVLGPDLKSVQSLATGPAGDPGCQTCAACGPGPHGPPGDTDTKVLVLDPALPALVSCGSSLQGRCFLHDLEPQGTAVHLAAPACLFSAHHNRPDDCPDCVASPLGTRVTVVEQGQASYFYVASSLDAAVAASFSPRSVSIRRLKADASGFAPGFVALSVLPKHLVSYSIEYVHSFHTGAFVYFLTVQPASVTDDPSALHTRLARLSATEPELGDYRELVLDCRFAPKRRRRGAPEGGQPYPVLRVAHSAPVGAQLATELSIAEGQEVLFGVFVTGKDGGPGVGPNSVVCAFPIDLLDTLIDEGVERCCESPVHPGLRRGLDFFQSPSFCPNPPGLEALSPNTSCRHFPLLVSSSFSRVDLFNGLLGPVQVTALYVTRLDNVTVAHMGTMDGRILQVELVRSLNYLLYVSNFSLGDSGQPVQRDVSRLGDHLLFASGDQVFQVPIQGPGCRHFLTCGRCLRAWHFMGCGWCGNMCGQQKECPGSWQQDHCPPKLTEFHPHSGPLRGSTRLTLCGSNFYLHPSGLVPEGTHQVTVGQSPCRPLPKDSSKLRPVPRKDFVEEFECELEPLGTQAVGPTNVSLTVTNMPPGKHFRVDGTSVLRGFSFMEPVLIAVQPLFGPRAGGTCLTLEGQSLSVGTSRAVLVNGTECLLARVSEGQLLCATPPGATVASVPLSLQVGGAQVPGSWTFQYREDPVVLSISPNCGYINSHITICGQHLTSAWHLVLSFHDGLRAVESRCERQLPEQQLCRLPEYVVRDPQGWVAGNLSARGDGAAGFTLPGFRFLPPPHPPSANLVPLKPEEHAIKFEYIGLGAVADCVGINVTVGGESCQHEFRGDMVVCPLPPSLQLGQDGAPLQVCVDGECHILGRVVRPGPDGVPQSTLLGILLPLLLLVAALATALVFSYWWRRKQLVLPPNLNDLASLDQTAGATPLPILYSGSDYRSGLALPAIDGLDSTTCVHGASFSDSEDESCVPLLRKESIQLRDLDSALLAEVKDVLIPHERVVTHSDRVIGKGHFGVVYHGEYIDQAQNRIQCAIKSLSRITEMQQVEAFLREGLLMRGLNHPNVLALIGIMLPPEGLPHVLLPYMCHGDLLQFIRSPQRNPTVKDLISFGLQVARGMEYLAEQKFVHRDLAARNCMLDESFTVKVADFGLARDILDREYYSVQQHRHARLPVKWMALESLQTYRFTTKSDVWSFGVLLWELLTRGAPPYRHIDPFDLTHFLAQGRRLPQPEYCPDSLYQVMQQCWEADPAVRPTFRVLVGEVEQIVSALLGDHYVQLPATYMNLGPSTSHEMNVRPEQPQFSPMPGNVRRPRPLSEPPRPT
Assay explanation: radiometric filter-binding kinase assay, Kinase HotSpot
Applied conditions: compound 0.5 µM; ATP 10 µM
Reported metric: residual activity (%)
Report the value in % with no unit label.

{"Compound": "Nc1nccc(-c2c(-c3ccc(F)cc3)ncn2C2CCNCC2)n1", "Reported metric": "residual activity", "Measured result": 100}
{"Compound": "Cn1sc(=O)n(Cc2ccccc2)c1=O", "Reported metric": "residual activity", "Measured result": 101}

# query: residual activity of entry CN([C@@H](Cc1ccc(OS(=O)(=O)c2cccc3cnccc23)cc1)C(=O)N1CCN(c2ccccc2)CC1)S(=O)(=O)c1cccc2cnccc12
94.4

Request the reported residual activity associated with O=C(Nc1cccc(Nc2cc(Nc3cccc(C(F)(F)F)c3)ncn2)c1)C1CC1
107

Data request, read-out residual activity, for COc1cc2ncc(-c3ccccc3)nc2cc1OC
84.2

Entry under review: O=C1NC(=O)C(c2cn(CCCO)c3ncccc23)=C1c1cnccn1 . Reported residual activity?
96.1

What value of residual activity has been reported for the following compound? COc1ccc(OC)c2c(=S)c3ccccc3[nH]c12
87.9

---

Target or system: CSNK1G2 (human) (UniProt P78368)
Sequence (P78368 whole entry, looked up): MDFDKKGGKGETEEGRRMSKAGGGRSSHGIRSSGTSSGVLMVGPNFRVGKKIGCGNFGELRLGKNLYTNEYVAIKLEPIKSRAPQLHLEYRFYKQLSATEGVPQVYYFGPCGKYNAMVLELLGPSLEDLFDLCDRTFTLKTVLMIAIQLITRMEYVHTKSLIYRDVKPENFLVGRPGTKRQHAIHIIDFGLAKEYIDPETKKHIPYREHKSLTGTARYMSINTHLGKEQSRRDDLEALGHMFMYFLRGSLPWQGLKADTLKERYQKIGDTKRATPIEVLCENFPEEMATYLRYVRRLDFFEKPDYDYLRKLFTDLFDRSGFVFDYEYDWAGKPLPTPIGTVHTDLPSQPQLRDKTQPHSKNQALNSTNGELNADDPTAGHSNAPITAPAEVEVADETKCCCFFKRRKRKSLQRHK
Assay explanation: radiometric filter-binding kinase assay, Kinase HotSpot
Applied conditions: compound 0.5 µM; ATP 10 µM
Decide using residual activity alone. Strictly below 90%: true (1). Equal to or above 90%: false (0).

Worked examples follow.
{"Compound": "COc1cc2ncnc(N3CCN(C(=O)Nc4ccc(Oc5ccccc5)cc4)CC3)c2cc1OC", "Target or system": "CSNK1G2 (human) (UniProt P78368)", "Group": "false (0)"}
{"Compound": "CCN(CC)CCCCN1c2ccccc2Oc2ccc(Cl)cc21", "Target or system": "CSNK1G2 (human) (UniProt P78368)", "Group": "false (0)"}
{"Compound": "CC(C)c1nn(-c2c(Cl)cccc2Cl)c2nc(Cc3ccc(OCCO)cc3)nc(O)c12", "Target or system": "CSNK1G2 (human) (UniProt P78368)", "Group": "false (0)"}
{"Compound": "CN(C)C[C@H]1CCn2c(c(C3=C(c4cn(C)c5ccccc45)C(=O)NC3=O)c3ccccc32)C1", "Target or system": "CSNK1G2 (human) (UniProt P78368)", "Group": "false (0)"}
{"Compound": "O=C(Nc1cccc(Nc2cc(Nc3cccc(C(F)(F)F)c3)ncn2)c1)C1CC1", "Target or system": "CSNK1G2 (human) (UniProt P78368)", "Group": "false (0)"}
{"Compound": "COc1ccc(OC)c2c(=S)c3ccccc3[nH]c12", "Target or system": "CSNK1G2 (human) (UniProt P78368)", "Group": "false (0)"}

Then this compound:
Report whether reported residual activity is lower than 90% (strictly) for O=C1Nc2ccccc2/C1=C1/Nc2ccccc2/C1=N\OCCC(O)CO (stereo not given)
true (1)

---

Target or system: TAOK2 (human)
Assay explanation: radiometric filter-binding kinase assay, Kinase HotSpot
Applied conditions: compound 0.5 µM; ATP 10 µM
Below: a set of entries, each annotated with reported residual activity.
Only the number, expressed in %, is required.

Here are 4 compounds together with their reported answers.
{"Compound structure": "Oc1ccc(Nc2nc(-c3ccc(Cl)cc3)cs2)cc1", "Measured result": 101}
{"Compound structure": "COc1cc2ncnc(N3CCN(C(=O)Nc4ccc(Oc5ccccc5)cc4)CC3)c2cc1OC", "Measured result": 96.3}
{"Compound structure": "CC(C)[C@H](CO)Nc1nc(Nc2cc(N)cc(Cl)c2)c2ncn(C(C)C)c2n1", "Measured result": 82.2}
{"Compound structure": "CC(=O)O/N=C1\\C(=C2\\C(=O)Nc3cc(Br)ccc32)Nc2ccccc21", "Measured result": 84.4}

For the next question, use this compound.
Any idea what its residual activity is? The compound is O=C1Nc2ccccc2/C1=C1\Nc2ccccc2\C1=N/O
96.3

---

Below, each of the compounds is paired with its reported residual activity value.
Target or system: NEK6 (human) (UniProt Q9HC98)
Sequence (Q9HC98 whole entry, looked up): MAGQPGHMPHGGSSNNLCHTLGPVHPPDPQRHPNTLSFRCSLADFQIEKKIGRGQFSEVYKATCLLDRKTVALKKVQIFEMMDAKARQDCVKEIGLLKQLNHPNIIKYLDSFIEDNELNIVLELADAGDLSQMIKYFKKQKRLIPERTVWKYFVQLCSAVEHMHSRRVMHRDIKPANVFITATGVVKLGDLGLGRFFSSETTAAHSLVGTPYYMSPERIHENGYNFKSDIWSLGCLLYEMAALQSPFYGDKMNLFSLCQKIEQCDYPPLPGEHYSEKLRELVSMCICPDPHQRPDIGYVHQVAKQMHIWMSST
Assay explanation: radiometric filter-binding kinase assay, Kinase HotSpot
Applied conditions: compound 0.5 µM; ATP 10 µM
Value expressed in %; do not type the unit.

{"Compound structure": "O=C1Cc2c([nH]c3ccc(Br)cc23)-c2ccccc2N1", "residual activity, %": 100}
{"Compound structure": "Nc1nnc2[nH]c3ccccc3nc1-2", "residual activity, %": 95.5}
{"Compound structure": "Cn1sc(=O)n(Cc2ccccc2)c1=O", "residual activity, %": 102}
{"Compound structure": "O=C(CCCc1ccc(-c2ccccc2F)cc1)Nc1ccc(O)cc1", "residual activity, %": 99.4}

Lab note: need residual activity for CN([C@@H](Cc1ccc(OS(=O)(=O)c2cccc3cnccc23)cc1)C(=O)N1CCN(c2ccccc2)CC1)S(=O)(=O)c1cccc2cnccc12 on NEK6 (human) (UniProt Q9HC98), anyone have it?
101

Form entry - test system: NEK6 (human) (UniProt Q9HC98); read-out: residual activity; compound: CC(C)c1nn(-c2c(Cl)cccc2Cl)c2nc(Cc3ccc(OCCO)cc3)nc(O)c12
105

Look up residual activity with NEK6 (human) (UniProt Q9HC98) for this compound: CC(=O)O/N=C1\C(=C2\C(=O)Nc3cc(Br)ccc32)Nc2ccccc21
100

Which measured residual activity belongs to Cn1nc2c3c(cccc31)C(=O)c1ccccc1-2 , tested on NEK6 (human) (UniProt Q9HC98)?
108

Please state recorded residual activity (tested on NEK6 (human) (UniProt Q9HC98)) of O=C1NC(=O)/C(=C\c2ccc3nccnc3c2)S1
109

# get_value(readout= residual activity, system= NEK6 (human) (UniProt Q9HC98)) for CC(C)[C@H](CO)Nc1nc(Nc2cc(N)cc(Cl)c2)c2ncn(C(C)C)c2n1
111

Please tell me: residual activity of O=C1NC(=O)C(c2cn(CCCO)c3ncccc23)=C1c1cnccn1 , system NEK6 (human) (UniProt Q9HC98)?
94.2

Query for NEK6 (human) (UniProt Q9HC98): what residual activity does the record show for Cc1nc2cc3nc(-c4cccs4)cnc3cc2n1C ?
99.2

Lab request: please report residual activity under test system NEK6 (human) (UniProt Q9HC98) for Nc1nccc(-c2c(-c3ccc(F)cc3)ncn2C2CCNCC2)n1
104

Where these numbers come from: the kinase profiling compilation of Christmann-Franck et al. (2016)
